tested on: Plasmodium falciparum; assay: Resistance index, ratio of IC50 for chloroquine-resistant Plasmodium falciparum Dd2 to IC50 for chloroquine-sensitive Plasmodium falciparum D10; assay type: functional
Measured metric: Ratio IC50
Numbers only.

Solved entries (count: 4):
CC[C@H]1CN2CCc3cc(OC)c(OC)cc3[C@@H]2C[C@@H]1C[C@H]1NCCc2cc(OC)c(OC)cc21 [EMETINE]
0.4
C[C@H]1[C@@H](OCCN(CCNc2ccnc3cc(Cl)ccc23)CCO[C@H]2O[C@@H]3O[C@]4(C)CC[C@H]5[C@H](C)CC[C@@H]([C@H]2C)[C@@]35OO4)O[C@@H]2O[C@]3(C)CC[C@H]4[C@H](C)CC[C@@H]1[C@@]24OO3
6
C[C@H]1[C@@H](OCCN(CCCNc2ccnc3cc(Cl)ccc23)CCO[C@H]2O[C@@H]3O[C@]4(C)CC[C@H]5[C@H](C)CC[C@@H]([C@H]2C)[C@@]35OO4)O[C@@H]2O[C@]3(C)CC[C@H]4[C@H](C)CC[C@@H]1[C@@]24OO3
5
C[C@H]1[C@@H](OCCN(CCCCNc2ccnc3cc(Cl)ccc23)CCO[C@H]2O[C@@H]3O[C@]4(C)CC[C@H]5[C@H](C)CC[C@@H]([C@H]2C)[C@@]35OO4)O[C@@H]2O[C@]3(C)CC[C@H]4[C@H](C)CC[C@@H]1[C@@]24OO3
2

Field: next compound
[in] Consider the compound C[C@H]1[C@@H](O[N+]2(CCO[C@H]3O[C@H]4O[C@]5(C)CC[C@H]6[C@H](C)CC[C@@H]([C@H]3C)[C@@]46OO5)CCN(CCNc3ccnc4cc(Cl)ccc34)CC2)O[C@@H]2O[C@]3(C)CC[C@H]4[C@H](C)CC[C@@H]1[C@@]24OO3.[Br-] . State its measured Ratio IC50.
[out] 3

====

For each entry below, report its IC50 value.
tested on: Plasmodium falciparum; experiment: Antiplasmodial activity against chloroquine-resistant Plasmodium falciparum Dd2; type: functional, organism-based
Please append the unit to your numeric answer.

Solved entries (count: 3):
C[C@H]1[C@@H](O)O[C@@H]2O[C@@]3(C)CC[C@H]4[C@H](C)CC[C@@H]1[C@@]24OO3 [ARTENIMOL]
2.09 nM
C[C@H]1[C@@H](O[N+]2(CCO[C@H]3O[C@H]4O[C@]5(C)CC[C@H]6[C@H](C)CC[C@@H]([C@H]3C)[C@@]46OO5)CCN(CCNc3ccnc4cc(Cl)ccc34)CC2)O[C@@H]2O[C@]3(C)CC[C@H]4[C@H](C)CC[C@@H]1[C@@]24OO3.[Br-]
55.7 nM
C[C@H]1[C@@H](OCCN(CCCNc2ccnc3cc(Cl)ccc23)CCO[C@H]2O[C@@H]3O[C@]4(C)CC[C@H]5[C@H](C)CC[C@@H]([C@H]2C)[C@@]35OO4)O[C@@H]2O[C@]3(C)CC[C@H]4[C@H](C)CC[C@@H]1[C@@]24OO3
28.4 nM

Field: next compound
[in] Consider the compound C[C@H]1[C@@H](OCCN(CCNc2ccnc3cc(Cl)ccc23)CCO[C@H]2O[C@@H]3O[C@]4(C)CC[C@H]5[C@H](C)CC[C@@H]([C@H]2C)[C@@]35OO4)O[C@@H]2O[C@]3(C)CC[C@H]4[C@H](C)CC[C@@H]1[C@@]24OO3 . State its measured IC50.
[out] 46.1 nM

====

For each entry below, report its selectivity ratio value.
experiment: Selectivity index, ratio of IC50 for CHO cells to IC50 of chloroquine-sensitive Plasmodium falciparum D10; format: toxicity, cell-based; details: hamster, read-out: Ratio IC50
One number for each entry.

C[C@H]1[C@@H](OCCN(CCNc2ccnc3cc(Cl)ccc23)CCO[C@H]2O[C@@H]3O[C@]4(C)CC[C@H]5[C@H](C)CC[C@@H]([C@H]2C)[C@@]35OO4)O[C@@H]2O[C@]3(C)CC[C@H]4[C@H](C)CC[C@@H]1[C@@]24OO3
1360
C[C@H]1[C@@H](OCCN(CCCNc2ccnc3cc(Cl)ccc23)CCO[C@H]2O[C@@H]3O[C@]4(C)CC[C@H]5[C@H](C)CC[C@@H]([C@H]2C)[C@@]35OO4)O[C@@H]2O[C@]3(C)CC[C@H]4[C@H](C)CC[C@@H]1[C@@]24OO3
128
C[C@H]1[C@@H](OCCN(CCCCNc2ccnc3cc(Cl)ccc23)CCO[C@H]2O[C@@H]3O[C@]4(C)CC[C@H]5[C@H](C)CC[C@@H]([C@H]2C)[C@@]35OO4)O[C@@H]2O[C@]3(C)CC[C@H]4[C@H](C)CC[C@@H]1[C@@]24OO3
61

[in] Consider the compound C[C@H]1[C@@H](O[N+]2(CCO[C@H]3O[C@H]4O[C@]5(C)CC[C@H]6[C@H](C)CC[C@@H]([C@H]3C)[C@@]46OO5)CCN(CCNc3ccnc4cc(Cl)ccc34)CC2)O[C@@H]2O[C@]3(C)CC[C@H]4[C@H](C)CC[C@@H]1[C@@]24OO3.[Br-] . State its measured selectivity ratio.
[out] 3810

====

system: Plasmodium falciparum; experiment: Antiplasmodial activity against chloroquine-resistant Plasmodium falciparum Dd2; type: functional, organism-based
Measured metric: pIC50
Numbers only, as −log10 of the molar value.

[in] Consider the molecule C[C@H]1[C@@H](OCCN(CCCCNc2ccnc3cc(Cl)ccc23)CCO[C@H]2O[C@@H]3O[C@]4(C)CC[C@H]5[C@H](C)CC[C@@H]([C@H]2C)[C@@]35OO4)O[C@@H]2O[C@]3(C)CC[C@H]4[C@H](C)CC[C@@H]1[C@@]24OO3 . State its measured pIC50.
[out] 6.69

====

For each entry below, report its pIC50 value.
tested on: Plasmodium falciparum; experiment: Antiplasmodial activity against chloroquine-sensitive Plasmodium falciparum D10; format: functional, organism-based
Answers are plain numbers, as −log10 of the molar value.

Solved entries (count: 4):
C[C@H]1[C@@H](OCCN(CCCNc2ccnc3cc(Cl)ccc23)CCO[C@H]2O[C@@H]3O[C@]4(C)CC[C@H]5[C@H](C)CC[C@@H]([C@H]2C)[C@@]35OO4)O[C@@H]2O[C@]3(C)CC[C@H]4[C@H](C)CC[C@@H]1[C@@]24OO3
8.27
C[C@H]1[C@@H](O[N+]2(CCO[C@H]3O[C@H]4O[C@]5(C)CC[C@H]6[C@H](C)CC[C@@H]([C@H]3C)[C@@]46OO5)CCN(CCNc3ccnc4cc(Cl)ccc34)CC2)O[C@@H]2O[C@]3(C)CC[C@H]4[C@H](C)CC[C@@H]1[C@@]24OO3.[Br-]
7.71
C[C@H]1[C@@H](OCCN(CCCCNc2ccnc3cc(Cl)ccc23)CCO[C@H]2O[C@@H]3O[C@]4(C)CC[C@H]5[C@H](C)CC[C@@H]([C@H]2C)[C@@]35OO4)O[C@@H]2O[C@]3(C)CC[C@H]4[C@H](C)CC[C@@H]1[C@@]24OO3
7.05
C[C@H]1[C@@H](O)O[C@@H]2O[C@@]3(C)CC[C@H]4[C@H](C)CC[C@@H]1[C@@]24OO3
8.29

Field: next compound
[in] Consider the compound C[C@H]1[C@@H](OCCN(CCNc2ccnc3cc(Cl)ccc23)CCO[C@H]2O[C@@H]3O[C@]4(C)CC[C@H]5[C@H](C)CC[C@@H]([C@H]2C)[C@@]35OO4)O[C@@H]2O[C@]3(C)CC[C@H]4[C@H](C)CC[C@@H]1[C@@]24OO3 . State its measured pIC50.
[out] 8.13

Origin of the recorded values: ChEMBL document CHEMBL1287698
